Cited source for all entries: ChEMBL document CHEMBL5291721

Please consider the recorded AC50 for Muscarinic acetylcholine receptor M3 (Homo sapiens) in what follows.
Where a SMILES comes first, the peptide text is derived from it. [ ]: non-standard residue; d: D form. pGlu = O=C1CC[C@@H](C(=O)O)N1; Thz = O=C(O)[C@@H]1CSCN1

These recorded examples may help you get a feel for the data.
Compound | AC50
CC(C)NC(=N)NC(=N)Nc1ccc(Cl)c(Cl)c1 | > 30 µM
O=C(O)Cc1ccccc1Oc1ccc(Cl)cc1Cl | > 10 µM
O=C1CC[C@@H](C(=O)N2CSC[C@H]2C(=O)O)N1 [PIDOTIMOD] ([pGlu]-[Thz]-OH) | > 30 µM

Test item `CCOC(=O)[C@@H](N)Cc1ccc(-c2cc(O[C@H](c3ccc(Cl)cc3-n3ccc(C)n3)C(F)(F)F)nc(N)n2)cc1` ; Muscarinic acetylcholine receptor M3 (Homo sapiens); reported AC50 was > 30 µM

----------
Recorded measurements of AC50, one per entry
- System Name: B2 bradykinin receptor (Homo sapiens); also: assay procedure not described here
- Sequence (P30411 whole entry): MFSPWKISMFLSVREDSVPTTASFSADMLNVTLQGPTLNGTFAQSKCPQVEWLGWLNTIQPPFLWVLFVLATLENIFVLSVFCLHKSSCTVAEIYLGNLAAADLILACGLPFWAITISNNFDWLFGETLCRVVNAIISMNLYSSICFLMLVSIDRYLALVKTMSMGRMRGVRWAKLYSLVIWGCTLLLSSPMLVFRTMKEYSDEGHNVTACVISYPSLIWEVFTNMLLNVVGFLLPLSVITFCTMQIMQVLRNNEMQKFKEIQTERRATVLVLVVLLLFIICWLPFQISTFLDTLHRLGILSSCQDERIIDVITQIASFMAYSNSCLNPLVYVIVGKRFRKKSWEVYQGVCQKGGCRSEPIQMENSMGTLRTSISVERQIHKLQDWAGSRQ

Compound | AC50
CCCc1cc(=O)[nH]c(=S)[nH]1 | > 10 µM
Cn1c(=O)c2c(ncn2CCOC(=O)C(C)(C)Oc2ccc(Cl)cc2)n(C)c1=O [THEOFIBRATE] | > 30 µM
CCC(=O)O[C@]1(C(=O)CCl)[C@@H](C)C[C@H]2[C@@H]3CCC4=CC(=O)C=C[C@]4(C)[C@@]3(F)[C@@H](O)C[C@@]21C [CLOBETASOL PROPIONATE] | > 30 µM
CCCC(C)(COC(N)=O)COC(N)=O [MEPROBAMATE] | > 10 µM
C[C@@H]1C[C@H]2[C@@H]3CCC4=CC(=O)C=C[C@]4(C)[C@@]3(F)[C@@H](O)C[C@]2(C)[C@@]1(O)C(=O)CO | > 30 µM
CCC(=O)O[C@](Cc1ccccc1)(c1ccccc1)[C@H](C)CN(C)C | > 30 µM
COC(=O)[C@H]1[C@H]2C[C@@H]3c4[nH]c5cc(OC)ccc5c4CCN3C[C@H]2C[C@@H](OC(=O)c2cc(OC)c(OC)c(OC)c2)[C@@H]1OC | > 10 µM
C=C1c2cccc(O)c2C(=O)C2=C(O)[C@]3(O)C(=O)C(C(N)=O)=C(O)[C@@H](N(C)C)[C@@H]3[C@@H](O)[C@H]12 | > 30 µM
CC=CC1=C(C(=O)O)N2C(=O)[C@@H](NC(=O)[C@H](N)c3ccc(O)cc3)[C@H]2SC1 | > 30 µM
CC1(C)S[C@@H]2[C@H](NC(=O)C(C(=O)O)c3ccccc3)C(=O)N2[C@H]1C(=O)O (stereo not given in full) | > 30 µM

In plain terms, CN1Cc2c(N)cccc2C(c2ccccc2)C1 (stereo not given) has a documented AC50 of > 30 µM

In plain terms, `C=CC[N+]1([C@H]2C[C@H]3[C@@H]4CC[C@H]5C[C@H](O)[C@@H](N6CCOCC6)C[C@]5(C)[C@H]4CC[C@]3(C)[C@H]2OC(C)=O)CCCC1` has a documented AC50 of > 30 µM

In plain terms, CN(Cc1cnc2nc(N)nc(N)c2n1)c1ccc(C(=O)N[C@@H](CCC(=O)O)C(=O)O)cc1 [METHOTREXATE] has a documented AC50 of > 30 µM

In plain terms, `CC(=O)Nc1ccc(CC(=O)O)cc1` has a documented AC50 of > 30 µM

In plain terms, CCN1CC(CCN2CCOCC2)C(c2ccccc2)(c2ccccc2)C1=O (stereo not given) has a documented AC50 of > 30 µM

In plain terms, CCC(NC(C)C)C(O)c1ccc(O)c2[nH]c(=O)ccc12 (stereo not given) has a documented AC50 of > 30 µM

In plain terms, `CC[C@H](C)C(=O)O[C@H]1C[C@@H](C)C=C2C=C[C@H](C)[C@H](CC[C@@H]3C[C@@H](O)CC(=O)O3)[C@H]21` has a documented AC50 of > 30 µM

In plain terms, `CC(C)[C@H](N)C(=O)OCCOCn1cnc2c(=O)[nH]c(N)nc21` has a documented AC50 of > 30 µM

In plain terms, CCCCCCCN(CC)CCCC(O)c1ccc(NS(C)(=O)=O)cc1 (stereo not given) [IBUTILIDE] has a documented AC50 of > 30 µM

In plain terms, COC(=O)C1=C(C)NC(C)=C(C(=O)OCCN2CCN(C(c3ccccc3)c3ccccc3)CC2)C1c1cccc([N+](=O)[O-])c1 (stereo not given) has a documented AC50 of > 30 µM

----------
- System Name: Bile salt export pump (Homo sapiens); also: assay procedure not described here
- Sequence (O95342 whole entry): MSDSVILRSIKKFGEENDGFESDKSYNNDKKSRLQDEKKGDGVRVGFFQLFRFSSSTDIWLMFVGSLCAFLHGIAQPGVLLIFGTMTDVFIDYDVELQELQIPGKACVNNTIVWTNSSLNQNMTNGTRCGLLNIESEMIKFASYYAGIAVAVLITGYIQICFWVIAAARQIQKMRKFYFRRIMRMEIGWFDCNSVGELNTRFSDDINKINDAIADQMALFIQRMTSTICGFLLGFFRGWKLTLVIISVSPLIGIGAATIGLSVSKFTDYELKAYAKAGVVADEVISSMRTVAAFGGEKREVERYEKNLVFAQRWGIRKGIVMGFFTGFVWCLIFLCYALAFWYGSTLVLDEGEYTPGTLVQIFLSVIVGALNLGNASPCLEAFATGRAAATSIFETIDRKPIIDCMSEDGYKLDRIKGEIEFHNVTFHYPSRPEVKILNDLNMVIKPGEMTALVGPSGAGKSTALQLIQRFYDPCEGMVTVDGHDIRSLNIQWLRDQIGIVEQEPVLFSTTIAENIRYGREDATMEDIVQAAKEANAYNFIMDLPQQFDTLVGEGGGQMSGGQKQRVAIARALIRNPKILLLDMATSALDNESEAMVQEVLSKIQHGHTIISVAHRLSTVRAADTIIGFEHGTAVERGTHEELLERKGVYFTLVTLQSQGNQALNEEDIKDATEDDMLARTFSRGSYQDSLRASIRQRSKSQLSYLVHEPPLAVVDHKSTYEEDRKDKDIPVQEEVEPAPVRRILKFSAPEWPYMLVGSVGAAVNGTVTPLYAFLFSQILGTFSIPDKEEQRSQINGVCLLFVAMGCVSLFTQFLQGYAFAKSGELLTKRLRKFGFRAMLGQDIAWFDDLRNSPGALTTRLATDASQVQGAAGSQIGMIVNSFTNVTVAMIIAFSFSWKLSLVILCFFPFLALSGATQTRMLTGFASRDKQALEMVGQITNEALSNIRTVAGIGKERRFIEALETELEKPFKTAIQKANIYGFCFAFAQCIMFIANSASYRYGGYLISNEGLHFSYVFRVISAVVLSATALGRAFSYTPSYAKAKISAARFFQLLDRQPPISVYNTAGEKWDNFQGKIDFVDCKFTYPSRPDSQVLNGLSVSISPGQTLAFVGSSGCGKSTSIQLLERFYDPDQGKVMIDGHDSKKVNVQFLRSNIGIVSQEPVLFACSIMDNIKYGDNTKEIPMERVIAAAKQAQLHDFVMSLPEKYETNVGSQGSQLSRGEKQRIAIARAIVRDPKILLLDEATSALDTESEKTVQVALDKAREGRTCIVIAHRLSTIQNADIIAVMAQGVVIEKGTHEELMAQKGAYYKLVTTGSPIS
- Type: functional
Measurement Kind: AC50

These recorded examples may help you get a feel for the data.
Molecule | Endpoint Result
Cc1ccc(C(=O)c2ccc(CC(=O)O)n2C)cc1 | > 300 µM
CNC(=C[N+](=O)[O-])NCCSCc1csc(CN(C)C)n1 | > 300 µM

In plain terms, CNC[C@H](O)c1ccc(O)c(O)c1 [EPINEPHRINE] has a documented AC50 of > 300 µM

----------
Please consider the recorded AC50 for Sodium-dependent noradrenaline transporter (Homo sapiens) in what follows.

These recorded examples may help you get a feel for the data.
Compound | System Name | AC50
CCC(=O)O[C@](Cc1ccccc1)(c1ccccc1)[C@H](C)CN(C)C | Sodium-dependent noradrenaline transporter (Homo sapiens) | > 10 µM
CO/N=C(\C(=O)N[C@@H]1C(=O)N2C(C(=O)O)=C(CSc3nc(=O)c(=O)[nH]n3C)CS[C@H]12)c1csc(N)n1 | Sodium-dependent noradrenaline transporter (Homo sapiens) | > 30 µM
Cn1cc(C(=O)[C@@H]2CCc3nc[nH]c3C2)c2ccccc21 | Sodium-dependent noradrenaline transporter (Homo sapiens) | > 30 µM

From here, focus on the item given below.
In plain terms, CCC(=O)O[C@]1(C(=O)CCl)[C@@H](C)C[C@H]2[C@@H]3CCC4=CC(=O)C=C[C@]4(C)[C@@]3(F)[C@@H](O)C[C@@]21C [CLOBETASOL PROPIONATE] has a documented AC50 of > 30 µM

----------
Recorded measurements of AC50, one per entry
- System Name: Vasopressin V2 receptor (Homo sapiens, UniProt P30518); also: assay procedure not described here
- Sequence (P30518 whole entry): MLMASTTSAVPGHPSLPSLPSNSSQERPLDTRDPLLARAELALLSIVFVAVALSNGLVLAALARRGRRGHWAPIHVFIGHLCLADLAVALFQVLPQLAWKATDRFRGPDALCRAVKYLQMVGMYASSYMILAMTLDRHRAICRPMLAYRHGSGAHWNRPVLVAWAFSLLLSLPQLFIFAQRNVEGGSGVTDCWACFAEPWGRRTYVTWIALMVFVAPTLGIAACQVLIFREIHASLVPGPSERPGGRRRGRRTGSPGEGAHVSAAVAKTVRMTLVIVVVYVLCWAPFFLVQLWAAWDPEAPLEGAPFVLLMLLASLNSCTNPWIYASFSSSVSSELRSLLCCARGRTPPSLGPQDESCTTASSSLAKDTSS

These recorded examples may help you get a feel for the data.
Compound | Endpoint Result
O=C1c2cccc3c2[C@H](CCC3)CN1[C@@H]1CN2CCC1CC2 | > 30 µM
CC(c1cc2ccccc2s1)N(O)C(N)=O (centres undefined) | > 10 µM
CC(O)(CS(=O)(=O)c1ccc(F)cc1)C(=O)Nc1ccc(C#N)c(C(F)(F)F)c1 (centres undefined) [BICALUTAMIDE] | > 30 µM
CC1=C(C(=O)OC(C)C)C(c2cccc([N+](=O)[O-])c2)C(C(=O)OC2CN(C(c3ccccc3)c3ccccc3)C2)=C(N)N1 (centres undefined) | > 30 µM
CCCC(C)(COC(N)=O)COC(N)=O [MEPROBAMATE] | > 10 µM

In plain terms, C=CCN1CCc2nc(N)sc2CC1 [TALIPEXOLE] has a documented AC50 of > 30 µM

In plain terms, `OC[C@H]1O[C@@H](Oc2cc(O)cc(/C=C/c3ccc(O)cc3)c2)[C@H](O)[C@@H](O)[C@@H]1O` has a documented AC50 of > 30 µM

----------
- System Name: Voltage-gated inwardly rectifying potassium channel KCNH2 (Homo sapiens, UniProt Q12809); also: assay procedure not described here
- Sequence (Q12809 whole entry): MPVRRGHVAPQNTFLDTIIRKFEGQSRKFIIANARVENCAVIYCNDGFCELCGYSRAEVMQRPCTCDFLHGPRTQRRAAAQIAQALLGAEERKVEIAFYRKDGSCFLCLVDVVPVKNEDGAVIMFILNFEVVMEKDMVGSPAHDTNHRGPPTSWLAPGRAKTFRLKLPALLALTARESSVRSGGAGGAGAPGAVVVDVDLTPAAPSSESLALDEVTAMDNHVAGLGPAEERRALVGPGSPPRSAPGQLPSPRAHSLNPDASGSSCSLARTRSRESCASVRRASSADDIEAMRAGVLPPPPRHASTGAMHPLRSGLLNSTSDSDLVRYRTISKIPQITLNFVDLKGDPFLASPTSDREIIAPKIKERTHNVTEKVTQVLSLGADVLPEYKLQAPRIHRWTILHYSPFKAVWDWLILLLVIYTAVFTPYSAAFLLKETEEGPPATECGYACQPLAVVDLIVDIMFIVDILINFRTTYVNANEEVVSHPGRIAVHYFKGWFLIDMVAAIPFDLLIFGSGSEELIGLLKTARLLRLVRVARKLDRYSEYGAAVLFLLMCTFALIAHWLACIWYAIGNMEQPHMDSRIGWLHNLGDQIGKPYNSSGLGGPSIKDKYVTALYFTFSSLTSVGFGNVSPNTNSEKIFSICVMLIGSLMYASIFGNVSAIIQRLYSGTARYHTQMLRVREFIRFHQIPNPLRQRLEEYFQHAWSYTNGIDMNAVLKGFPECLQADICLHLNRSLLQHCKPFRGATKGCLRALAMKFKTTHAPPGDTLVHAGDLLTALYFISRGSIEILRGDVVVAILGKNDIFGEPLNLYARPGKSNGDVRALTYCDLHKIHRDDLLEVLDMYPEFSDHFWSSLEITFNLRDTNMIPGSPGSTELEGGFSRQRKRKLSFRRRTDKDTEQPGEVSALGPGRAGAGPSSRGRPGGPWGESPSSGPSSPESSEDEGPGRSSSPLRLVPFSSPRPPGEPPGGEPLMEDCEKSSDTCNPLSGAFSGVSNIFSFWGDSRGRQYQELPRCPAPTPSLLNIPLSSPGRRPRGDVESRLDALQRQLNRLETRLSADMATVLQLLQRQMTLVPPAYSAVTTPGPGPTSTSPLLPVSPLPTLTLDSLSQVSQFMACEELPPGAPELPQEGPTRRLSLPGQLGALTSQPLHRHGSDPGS
- Type: functional
Measurement Kind: AC50

These recorded examples may help you get a feel for the data.
Compound | AC50
CC(=O)[C@H]1CC[C@H]2[C@@H]3C[C@H](C)C4=CC(=O)CC[C@]4(C)[C@H]3[C@@H](O)C[C@]12C [MEDRYSONE] | > 30 µM
CCCc1cc(=O)[nH]c(=S)[nH]1 [PROPYLTHIOURACIL] | > 30 µM

In plain terms, CCCSc1nc(N[C@@H]2C[C@H]2c2ccc(F)c(F)c2)c2nnn([C@@H]3C[C@H](OCCO)[C@@H](O)[C@H]3O)c2n1 [TICAGRELOR] has a documented AC50 of 27 µM

In plain terms, C=C(C)CNc1ccc(C(C)C(=O)O)cc1 (stereo unspecified) [ALMINOPROFEN] has a documented AC50 of > 30 µM

In plain terms, CC(=O)NCCCCCC(=O)O [ACEXAMIC ACID] has a documented AC50 of > 30 µM

In plain terms, Cc1cc(=O)[nH]c(=S)[nH]1 [METHYLTHIOURACIL] has a documented AC50 of > 30 µM

----------
Please consider the recorded AC50 for Adenosine receptor A3 (Homo sapiens, UniProt P0DMS8) in what follows.

Molecule | AC50
CC(=O)O[C@]1(C(C)=O)CC[C@H]2[C@@H]3C=C(Cl)C4=CC(=O)[C@@H]5C[C@@H]5[C@]4(C)[C@H]3CC[C@@]21C [CYPROTERONE ACETATE] | > 30 µM

Test item `Cc1cc(C2CCCCC2)n(O)c(=O)c1` ; Adenosine receptor A3 (Homo sapiens, UniProt P0DMS8); reported AC50 was > 30 µM

Test item O=C(O)COCCN1CCN(C(c2ccccc2)c2ccc(Cl)cc2)CC1 (stereo not drawn) ; Adenosine receptor A3 (Homo sapiens, UniProt P0DMS8); reported AC50 was > 30 µM

Test item `CCOC(=O)C1=C(C)NC(C)=C(C(=O)OCC)C1c1ccccc1/C=C/C(=O)OC(C)(C)C` ; Adenosine receptor A3 (Homo sapiens, UniProt P0DMS8); reported AC50 was 15 µM

Test item CCCC(C)(COC(N)=O)COC(N)=O [MEPROBAMATE] ; Adenosine receptor A3 (Homo sapiens, UniProt P0DMS8); reported AC50 was > 10 µM

Test item Cn1c(=O)c2c(ncn2CCOC(=O)C(C)(C)Oc2ccc(Cl)cc2)n(C)c1=O [THEOFIBRATE] ; Adenosine receptor A3 (Homo sapiens, UniProt P0DMS8); reported AC50 was > 30 µM

Test item CCOC(=O)C(C)(C)Oc1ccc(Cl)cc1 [CLOFIBRATE] ; Adenosine receptor A3 (Homo sapiens, UniProt P0DMS8); reported AC50 was > 30 µM

Test item `Cn1cc(C(=O)[C@@H]2CCc3nc[nH]c3C2)c2ccccc21` ; Adenosine receptor A3 (Homo sapiens, UniProt P0DMS8); reported AC50 was > 30 µM

Test item `c1ccc(C2(N3CCCCC3)CCCCC2)cc1` ; Adenosine receptor A3 (Homo sapiens, UniProt P0DMS8); reported AC50 was > 30 µM

Test item `Cc1ccccc1-n1c(CF)nc2ccc(N)cc2c1=O` ; Adenosine receptor A3 (Homo sapiens, UniProt P0DMS8); reported AC50 was > 30 µM

Test item O=C1OC(OC(=O)c2cccnc2Nc2cccc(C(F)(F)F)c2)c2ccccc21 (stereo not drawn) [TALNIFLUMATE] ; Adenosine receptor A3 (Homo sapiens, UniProt P0DMS8); reported AC50 was > 30 µM

Test item CC(=O)c1ccc(S(=O)(=O)NC(=O)NC2CCCCC2)cc1 [ACETOHEXAMIDE] ; Adenosine receptor A3 (Homo sapiens, UniProt P0DMS8); reported AC50 was > 10 µM

Test item `Cc1ccc(C)c(OCCCC(C)(C)C(=O)O)c1` ; Adenosine receptor A3 (Homo sapiens, UniProt P0DMS8); reported AC50 was > 30 µM
